experiment: chloroform-buffer partition coefficient; type: physicochemical; conditions: pH 7.4 phosphate buffer, B compounds as sodium salts
PROPERTY MEASURED: Log P

MOLECULE	PROPERTY MEASURED	TEST VALUE
NS(=O)(=O)c1ccc(CNC(=S)NC(CO)C(=O)O)cc1 (centres unmarked)	Log P	1.662
CCOc1ccc2nc(S(N)(=O)=O)sc2c1 [Ethoxzolamide, ethoxzolamide, reference compound]	Log P	1.40
NS(=O)(=O)c1ccc(CNC(=S)Nc2ccccc2C(=O)O)cc1	Log P	1.238
NS(=O)(=O)c1ccc(CNC(=S)Nc2ccc(C(=O)O)cc2)cc1	Log P	1.428
NS(=O)(=O)c1ccc(CNC(=S)Nc2cccc(C(=O)O)c2)cc1	Log P	1.313
NS(=O)(=O)c1ccc(CNC(=S)NC(C(=O)O)c2ccccc2)cc1 (centres unmarked)	Log P	3.721
NS(=O)(=O)c1ccc(CNC(=S)NCCC(=O)NC(Cc2cnc[nH]2)C(=O)O)cc1 (centres unmarked)	Log P	0.933
NS(=O)(=O)c1ccc(CNC(=S)NC(C(=O)O)C(O)c2ccccc2)cc1 (centres unmarked)	Log P	2.518
NS(=O)(=O)c1ccc(CNC(=S)NC(CS)C(=O)O)cc1 (centres unmarked)	Log P	0.124
CC(=O)/N=c1/sc(S(N)(=O)=O)nn1C [Methazolamide, methazolamide, reference compound]	Log P	0.06
